The measured values listed here are drawn from patent US20190177380.

# MEASUREMENT_TARGET: T1, MBNL1(1-2,1-2) (Homo sapiens)
# T1 chain: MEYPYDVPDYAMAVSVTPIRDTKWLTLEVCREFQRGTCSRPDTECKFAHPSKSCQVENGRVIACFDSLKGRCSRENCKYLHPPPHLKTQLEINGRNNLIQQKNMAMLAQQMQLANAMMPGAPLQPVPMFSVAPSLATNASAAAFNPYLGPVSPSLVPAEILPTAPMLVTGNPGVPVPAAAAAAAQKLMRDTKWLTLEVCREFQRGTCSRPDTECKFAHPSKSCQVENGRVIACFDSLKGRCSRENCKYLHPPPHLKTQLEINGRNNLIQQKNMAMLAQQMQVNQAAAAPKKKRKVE
# ASSAY_DETAILS: EMSA; 115 mM NaCl, 20 mM Tris pH 7.5, 5 mM MgCl2, heparin, room temperature; apparent Kd
# SETTINGS: label: 5'-32P; short hairpin (predicted)
pKd: −log10 of the molar value.

[
  {
    "BINDER": "GCUGCUGUUCGCUGCUG (ssRNA) [CUG4]",
    "pKd": 6.57
  }
]
